- tested-on: PDGFRβ (Homo sapiens (Human), UniProt P09619)
- Sequence (P09619 33-1106): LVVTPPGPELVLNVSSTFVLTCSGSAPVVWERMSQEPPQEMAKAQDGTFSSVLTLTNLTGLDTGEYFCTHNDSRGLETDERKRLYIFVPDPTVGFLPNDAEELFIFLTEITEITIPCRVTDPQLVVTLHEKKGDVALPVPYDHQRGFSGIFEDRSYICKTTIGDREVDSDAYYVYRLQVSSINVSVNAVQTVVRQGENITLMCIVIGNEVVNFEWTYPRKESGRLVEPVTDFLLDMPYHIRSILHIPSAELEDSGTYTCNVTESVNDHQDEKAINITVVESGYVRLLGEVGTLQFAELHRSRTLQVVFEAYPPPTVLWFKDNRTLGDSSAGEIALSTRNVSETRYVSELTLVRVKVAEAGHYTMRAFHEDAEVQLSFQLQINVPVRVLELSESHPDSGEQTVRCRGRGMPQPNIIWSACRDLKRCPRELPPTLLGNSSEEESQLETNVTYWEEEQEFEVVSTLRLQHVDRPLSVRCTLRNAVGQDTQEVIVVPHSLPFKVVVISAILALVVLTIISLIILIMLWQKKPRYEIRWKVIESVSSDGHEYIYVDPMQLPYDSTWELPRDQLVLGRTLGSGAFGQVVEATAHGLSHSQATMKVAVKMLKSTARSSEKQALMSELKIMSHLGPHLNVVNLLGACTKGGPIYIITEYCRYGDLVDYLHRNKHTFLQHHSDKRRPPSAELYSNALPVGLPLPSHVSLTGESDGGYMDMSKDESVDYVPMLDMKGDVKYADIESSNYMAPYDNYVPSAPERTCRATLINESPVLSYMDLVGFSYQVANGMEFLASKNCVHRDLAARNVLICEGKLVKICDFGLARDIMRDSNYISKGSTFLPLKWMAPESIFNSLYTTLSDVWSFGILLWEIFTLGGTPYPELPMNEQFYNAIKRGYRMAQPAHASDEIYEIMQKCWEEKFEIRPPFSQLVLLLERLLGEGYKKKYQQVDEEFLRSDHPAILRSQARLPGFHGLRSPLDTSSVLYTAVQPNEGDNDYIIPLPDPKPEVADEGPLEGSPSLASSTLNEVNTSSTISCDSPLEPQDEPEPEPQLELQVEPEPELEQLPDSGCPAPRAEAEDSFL
- protocol-text: Inhibition of PDGFRβ kinase activity (HTRF KinEASE-TK)
- stated-conditions: biochemical, HTRF KinEASE-TK
Recorded IC50, one value per entry.

Would you please look over these solved cases?
Cc1ncc(C(=O)Nc2cc(C(=O)Nc3ccc(OC(F)(F)F)cn3)c(F)cc2C)s1 [Example 39] | > 1000 nM
Nc1ncc(C(=O)Nc2cc(C(=O)Nc3ccc(C(F)F)cn3)c(F)cc2Cl)s1 [Example 206] | 100 to 1000 nM
Nc1ncc(C(=O)Nc2cc(C(=O)Nc3ccc(OC4CC4)cn3)c(F)cc2Br)s1 [Example 236] | 100 to 1000 nM
Cc1ncc(C(=O)Nc2cc(C(=O)Nc3ccc(CC(F)(F)F)cn3)c(Cl)cc2C)s1 [Example 99] | > 1000 nM
COc1ccc(NC(=O)c2cc(NC(=O)c3cnc(N)s3)c(C)cc2F)c(F)c1 [Example 228] | 100 to 1000 nM
CCc1ccc(NC(=O)c2cc(NC(=O)c3cnc(N)s3)c(C)cc2F)nc1 [Example 255] | 100 to 1000 nM
Cc1cc(F)c(C(=O)Nc2ccc(OC3CC3)cc2F)cc1NC(=O)c1cnc(N)s1 [Example 128] | < 100 nM
Cc1ncc(C(=O)Nc2cc(C(=O)Nc3ccc(OC4CC4)c(C)n3)c(F)cc2C)s1 [Example 62] | > 1000 nM
Cc1cc(F)c(C(=O)N[C@H]2C[C@@H](C(N)=O)C2)cc1NC(=O)c1cnc(N)s1 [Example 127] | > 1000 nM
Nc1ncc(C(=O)Nc2cc(C(=O)Nc3ccc(OCC(F)(F)F)cn3)c(F)cc2F)s1 [Example 220] | > 1000 nM

Data request: Consider the compound shown here: Cc1c(F)cc(C(=O)Nc2ccc(OC3CC3)cn2)cc1NC(=O)c1cnc(N)s1 [Example 243] What is its recorded IC50?
Data returned: < 100 nM

Data request: Consider the compound shown here: Cc1ncc(C(=O)Nc2cc(C(=O)Nc3cnc(N4CC[C@@H](O)C4)cn3)c(F)cc2C)s1 [Example 72] What is its recorded IC50?
Data returned: > 1000 nM

---

- tested-on: PDGFRβ (Homo sapiens (Human))
- protocol-text: Inhibition of PDGFRβ kinase activity (HTRF KinEASE-TK)
- stated-conditions: biochemical, HTRF KinEASE-TK
Recorded IC50, one value per entry.

Cc1cc(F)c(C(=O)Nc2ccn(CC(F)F)n2)cc1NC(=O)c1cnc(N)s1 | 100 to 1000 nM
CC(=O)Nc1ncc(C(=O)Nc2cc(C(=O)Nc3ccc(OC4CC4)cn3)c(F)cc2C)s1 | < 100 nM

Now consider a different compound.
Data request: Consider the compound shown here: Cc1cc(F)c(C(=O)Nc2nc3c(s2)COCC3)cc1NC(=O)c1cnc(N)s1 What is its recorded IC50?
Data returned: 100 to 1000 nM

---

- tested-on: CSF1R (Homo sapiens (Human), UniProt P07333)
- Sequence (P07333 20-972): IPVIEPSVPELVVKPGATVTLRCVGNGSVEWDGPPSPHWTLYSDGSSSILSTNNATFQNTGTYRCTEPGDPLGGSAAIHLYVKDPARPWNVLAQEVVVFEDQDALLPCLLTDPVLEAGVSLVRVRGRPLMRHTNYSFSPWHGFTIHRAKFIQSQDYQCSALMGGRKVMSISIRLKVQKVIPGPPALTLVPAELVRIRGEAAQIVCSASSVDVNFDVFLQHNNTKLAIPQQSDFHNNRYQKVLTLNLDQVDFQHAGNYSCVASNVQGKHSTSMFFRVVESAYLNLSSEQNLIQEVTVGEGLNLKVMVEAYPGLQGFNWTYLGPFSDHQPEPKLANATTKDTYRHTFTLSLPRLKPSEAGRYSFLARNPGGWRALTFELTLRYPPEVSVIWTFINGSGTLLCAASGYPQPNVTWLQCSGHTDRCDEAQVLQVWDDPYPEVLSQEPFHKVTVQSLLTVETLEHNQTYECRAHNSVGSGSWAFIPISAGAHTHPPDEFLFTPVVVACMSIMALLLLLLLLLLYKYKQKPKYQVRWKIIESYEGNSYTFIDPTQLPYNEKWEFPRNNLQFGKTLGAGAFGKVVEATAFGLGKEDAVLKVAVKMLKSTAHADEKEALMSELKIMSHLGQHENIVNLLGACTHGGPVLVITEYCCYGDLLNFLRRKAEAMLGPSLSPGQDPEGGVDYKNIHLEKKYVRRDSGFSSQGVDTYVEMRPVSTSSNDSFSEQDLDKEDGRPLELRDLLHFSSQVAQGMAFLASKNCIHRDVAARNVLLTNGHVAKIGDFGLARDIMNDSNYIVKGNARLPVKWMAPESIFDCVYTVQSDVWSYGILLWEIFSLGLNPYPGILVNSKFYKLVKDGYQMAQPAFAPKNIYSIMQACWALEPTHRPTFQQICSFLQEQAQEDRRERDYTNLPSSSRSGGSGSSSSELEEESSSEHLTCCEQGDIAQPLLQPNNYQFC
- protocol-text: Inhibition of CSF1R kinase activity (HTRF KinEASE-TK)
- stated-conditions: biochemical, HTRF KinEASE-TK
Recorded IC50, one value per entry.

Cc1ncc(C(=O)Nc2cc(C(=O)Nc3cnc(OCC(F)(F)F)cn3)c(F)cc2C)s1 [Example 89] | > 1000 nM
Cc1cc(F)c(C(=O)Nc2ccn(-c3ccccn3)n2)cc1NC(=O)c1cnc(N)s1 [Example 168] | > 1000 nM
Nc1ncc(C(=O)Nc2cc(C(=O)Nc3ccc(C4CC4)nn3)c(F)cc2Cl)s1 [Example 201] | 100 to 1000 nM
Cc1cc(F)c(C(=O)Nc2ccc(OC3CC3)cc2F)cc1NC(=O)c1cnc(N)s1 [Example 128] | 100 to 1000 nM
Cc1cc(F)c(C(=O)Nc2ccn(C(F)F)n2)cc1NC(=O)c1cnc(N)s1 [Example 181] | > 1000 nM

Data request: Consider the compound shown here: Cc1cc(F)c(C(=O)Nc2ccc(O[C@@H]3CCOC3)cn2)cc1NC(=O)c1cnc(N)s1 [Example 198] What is its recorded IC50?
Data returned: > 1000 nM

Data request: Consider the compound shown here: Cc1cc(F)c(C(=O)N[C@H]2C[C@@H](F)C2)cc1NC(=O)c1cnc(N)s1 [Example 124] What is its recorded IC50?
Data returned: > 1000 nM

Data request: Consider the compound shown here: COc1ccc(NC(=O)c2cc(NC(=O)c3cnc(N)s3)c(C)cc2F)cc1 [Example 230] What is its recorded IC50?
Data returned: 100 to 1000 nM

Data request: Consider the compound shown here: Cc1cc(F)c(C(=O)N[C@H]2C[C@@H]2F)cc1NC(=O)c1cnc(N)s1 [Example 138] What is its recorded IC50?
Data returned: > 1000 nM

Data request: Consider the compound shown here: Cc1cc(F)c(C(=O)Nc2ccccn2)cc1NC(=O)c1cnc(N)s1 [Example 132] What is its recorded IC50?
Data returned: > 1000 nM

Data request: Consider the compound shown here: Cc1ncc(C(=O)Nc2cc(C(=O)Nc3cnc(N4CCC[C@@H]4C(F)(F)F)cn3)c(F)cc2C)s1 [Example 96] What is its recorded IC50?
Data returned: > 1000 nM

Data request: Consider the compound shown here: Cc1cc(F)c(C(=O)Nc2ccc(OC(C)C)cn2)cc1NC(=O)c1cnc(N)s1 [Example 140] What is its recorded IC50?
Data returned: 100 to 1000 nM

Data request: Consider the compound shown here: Cc1ncc(C(=O)Nc2cc(C(=O)Nc3cncc(CC4CC4)n3)c(F)cc2C)s1 [Example 34] What is its recorded IC50?
Data returned: > 1000 nM

Data request: Consider the compound shown here: Cc1cc(F)c(C(=O)Nc2ccn(C3CCC3)n2)cc1NC(=O)c1cnc(N)s1 [Example 155] What is its recorded IC50?
Data returned: > 1000 nM

Data request: Consider the compound shown here: Cc1cc(F)c(C(=O)Nc2ccc(OC3COC4(CC4)C3)cn2)cc1NC(=O)c1cnc(N)s1 (stereo not drawn) [Example 199] What is its recorded IC50?
Data returned: > 1000 nM

Data request: Consider the compound shown here: Cc1ncc(C(=O)Nc2cc(C(=O)Nc3ccc(C(C)(F)F)cn3)c(F)cc2C)s1 [Example 20] What is its recorded IC50?
Data returned: > 1000 nM

Data request: Consider the compound shown here: Cc1ncc(C(=O)Nc2cc(C(=O)Nc3ccc(C4(C(F)(F)F)CC4)cn3)c(F)cc2C)s1 [Example 67] What is its recorded IC50?
Data returned: > 1000 nM

Data request: Consider the compound shown here: Cc1ncc(C(=O)Nc2cc(C(=O)Nc3ccnc(C#N)c3)c(F)cc2C)s1 [Example 18] What is its recorded IC50?
Data returned: > 1000 nM

Value source: patent US20250145606A1
